# TARGET_ENTITY: Thyrotropin receptor (Homo sapiens) (UniProt P16473)
# Sequence (P16473 whole entry, looked up): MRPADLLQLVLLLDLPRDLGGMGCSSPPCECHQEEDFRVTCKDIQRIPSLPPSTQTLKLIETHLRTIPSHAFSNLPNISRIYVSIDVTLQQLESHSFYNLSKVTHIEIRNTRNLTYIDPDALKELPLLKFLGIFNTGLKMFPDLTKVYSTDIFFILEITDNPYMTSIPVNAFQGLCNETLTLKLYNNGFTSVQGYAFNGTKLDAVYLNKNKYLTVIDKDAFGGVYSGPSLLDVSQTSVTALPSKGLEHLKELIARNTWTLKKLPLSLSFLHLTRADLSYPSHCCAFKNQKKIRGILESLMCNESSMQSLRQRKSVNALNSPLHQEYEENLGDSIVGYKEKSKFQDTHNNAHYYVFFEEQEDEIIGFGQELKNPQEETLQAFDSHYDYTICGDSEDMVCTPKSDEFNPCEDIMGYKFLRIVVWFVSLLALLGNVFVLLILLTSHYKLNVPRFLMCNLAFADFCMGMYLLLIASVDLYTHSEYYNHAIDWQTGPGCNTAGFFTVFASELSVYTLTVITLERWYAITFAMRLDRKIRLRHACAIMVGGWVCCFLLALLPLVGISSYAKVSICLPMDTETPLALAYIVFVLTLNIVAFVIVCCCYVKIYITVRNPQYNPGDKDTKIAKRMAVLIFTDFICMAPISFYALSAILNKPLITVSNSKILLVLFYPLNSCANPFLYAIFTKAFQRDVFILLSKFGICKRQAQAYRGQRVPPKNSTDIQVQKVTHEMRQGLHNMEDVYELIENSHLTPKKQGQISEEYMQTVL
# ASSAY_TEXT: qHTS assay to identify small molecule agonists of the thyroid stimulating hormone receptor (TSHR) signaling pathway (AID 1224843); note: nearly all actives have a fitted effect of over 45% in size
# EXPERIMENTAL_SETUP: TSHR-HEK293 cells, cAMP HTRF, agonist mode, 30 min; series mostly up to 92.4 µM
Results filed as inconclusive are left out. Calls of active or inactive are those of the source. Calls come from the whole dose curve.
# output must be one of true for active, false for inactive

Check out these entries, answers already filled in.
| MOLECULE | ASSIGNED_LABEL |
| --- | --- |
| CC(C)NCC(O)c1cc(O)cc(O)c1 (centres undefined) | true |
| S=C(S)NCCNC(=S)S | false |
| CCCOc1ccc2nc(NC(=O)OC)[nH]c2c1 | false |

Ask | Per the records of this test, what outcome belongs to Cn1sccc1=O ?
Reply | false

Ask | For this molecule, state the assay outcome: CC(C)(C)c1ccc(OCC2CO2)cc1 (centres undefined)
Reply | false

Ask | What was the test verdict on C=CC(C)(CCC=C(C)C)OC(=O)c1ccccc1 (centres undefined) ?
Reply | false

Ask | Any idea what this test logged for O=S1(=O)N=C(O)c2ccccc21 ?
Reply | false

Ask | Outcome logged for C=CCCCCCC in this assay:
Reply | false

Ask | Record request — test call for Cc1ccccc1N=Nc1ccc(N=Nc2c(O)ccc3ccccc23)c(C)c1
Reply | false

Ask | Which result was noted for this molecule in the test: Cc1cc(C)c(S(=O)(=O)O)cc1N=Nc1cc(S(=O)(=O)O)c2ccccc2c1O
Reply | false

Ask | State the result this test recorded for CC(=O)Nc1ccc(/C=N/NC(N)=S)cc1 .
Reply | false

Ask | Hey, what did the test say about COc1ccc(OC)c(OC)c1 ?
Reply | false

Ask | // return assay outcome for CCCCC(CC)(CO)CO
Reply | false

Ask | Assay outcome for CCCC[C@H]1CN(CC2CCOCC2)C(=O)OC12CCN(C1(C)CCN(C(=O)c3c(C)ncnc3C)CC1)CC2 : what was it?
Reply | false

Ask | Test call, this molecule: Oc1ccc2c(c1)OCO2
Reply | false

Ask | Answer briefly: the call reported for O=c1[nH]cnc2ccccc12 in this assay.
Reply | false

----------
# TARGET_ENTITY: Cytochrome P450 2C9 (Homo sapiens) (UniProt P11712)
# Sequence (P11712 whole entry, looked up): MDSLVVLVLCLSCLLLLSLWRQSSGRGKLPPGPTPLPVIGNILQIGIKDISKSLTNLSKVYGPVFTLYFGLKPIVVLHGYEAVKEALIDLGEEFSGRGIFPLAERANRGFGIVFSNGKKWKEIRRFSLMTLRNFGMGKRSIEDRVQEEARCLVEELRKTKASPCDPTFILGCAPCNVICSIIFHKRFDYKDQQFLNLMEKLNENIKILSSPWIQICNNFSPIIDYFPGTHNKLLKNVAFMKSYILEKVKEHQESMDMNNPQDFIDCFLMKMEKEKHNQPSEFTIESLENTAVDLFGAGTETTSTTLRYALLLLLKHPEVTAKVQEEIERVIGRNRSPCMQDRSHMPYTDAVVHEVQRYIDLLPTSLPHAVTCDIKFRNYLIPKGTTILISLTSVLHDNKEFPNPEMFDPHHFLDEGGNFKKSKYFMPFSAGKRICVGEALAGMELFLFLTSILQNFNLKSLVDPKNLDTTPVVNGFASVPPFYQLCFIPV
# ASSAY_TEXT: Cytochrome P450 Family 2 Subfamily C Member 9 (CYP2C9) small molecule antagonists: luciferase reporter qHTS assay (AID 1671198); note: nearly all actives have a fitted effect of over 50% in size
# EXPERIMENTAL_SETUP: P450-Glo CYP2C9 enzyme assay, luciferin luminescence; series mostly up to 115 µM
Results filed as inconclusive are left out. Active and inactive are the calls of the source. The call rests on the fitted dose curve; in most records, active means well fitted inhibition curve with a large enough effect in the repeat runs; inconclusive means weak or mixed curves; inactive means no such curve, though single readings can be large or run the other way.
Result category, one only: active, inactive

Ask | Assay outcome for CC(C)(C)c1cc(CO)cc(C(C)(C)C)c1O : what was it?
Reply | active

Ask | What call does the record list for c1ccc(OCc2ccc(CCCN3CCOCC3)cc2)cc1 ?
Reply | active

----------
# TARGET_ENTITY: Cytochrome P450 2D6 (Homo sapiens) (UniProt P10635)
# Sequence (P10635 whole entry, looked up): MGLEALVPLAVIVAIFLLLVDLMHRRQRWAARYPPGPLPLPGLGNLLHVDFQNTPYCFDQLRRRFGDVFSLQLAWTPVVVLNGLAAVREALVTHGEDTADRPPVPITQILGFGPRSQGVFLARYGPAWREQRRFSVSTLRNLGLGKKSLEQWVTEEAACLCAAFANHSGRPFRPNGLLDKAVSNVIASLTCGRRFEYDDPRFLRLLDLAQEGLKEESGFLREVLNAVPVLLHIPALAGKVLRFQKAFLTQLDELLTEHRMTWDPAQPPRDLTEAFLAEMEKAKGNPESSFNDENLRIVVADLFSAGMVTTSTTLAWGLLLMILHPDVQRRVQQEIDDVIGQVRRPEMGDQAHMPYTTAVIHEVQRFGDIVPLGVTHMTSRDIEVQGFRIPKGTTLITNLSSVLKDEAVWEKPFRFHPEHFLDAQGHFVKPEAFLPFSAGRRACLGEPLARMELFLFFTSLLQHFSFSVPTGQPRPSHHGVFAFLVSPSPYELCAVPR
# ASSAY_TEXT: Cytochrome P450 Family 2 Subfamily D Member 6 (CYP2D6) small molecule antagonists: luciferase reporter qHTS assay (AID 1671196); note: nearly all actives have a fitted effect of over 50% in size
# EXPERIMENTAL_SETUP: P450-Glo CYP2D6 enzyme assay, luciferin luminescence, 1 h; series mostly up to 115 µM
Inconclusive results are not listed. Calls of active or inactive are those of the source. Calls come from the whole dose curve; as a rule, active = well fitted inhibition curve with a large enough effect in the repeat runs; inconclusive = weak or mixed curves; inactive = no such curve, though single readings can be large or run the other way.
Outcome field: choose from active, inactive

Study these solved cases before continuing.
| MOLECULE | ASSIGNED_LABEL |
| --- | --- |
| CCN(CC)CCc1nc(-c2ccccc2)no1 | active |
| CCCCCCCCCCCCCCCC(=O)OC/C=C(C)/C=C/C=C(C)/C=C/C1=C(C)CCCC1(C)C | inactive |
| CCN(CC)CCNC(C(=O)OCCC(C)C)c1ccccc1 (configuration not stated) | active |

Ask | Record lookup: outcome of this test for Cn1c(=O)c2c(ncn2CC(O)CO)n(C)c1=O (configuration not stated) ?
Reply | inactive

Ask | Recorded call for N=C(N=C(N)N)N1CCOCC1 ?
Reply | inactive

Ask | For this molecule, state the assay outcome: CC(=O)SCc1ccco1
Reply | inactive

Ask | Check the results log: what was the call for CN1CCC[C@@H]1c1cccnc1 ?
Reply | active

----------
# TARGET_ENTITY: Androgen receptor (Homo sapiens) (UniProt P10275)
# Sequence (P10275 whole entry, looked up): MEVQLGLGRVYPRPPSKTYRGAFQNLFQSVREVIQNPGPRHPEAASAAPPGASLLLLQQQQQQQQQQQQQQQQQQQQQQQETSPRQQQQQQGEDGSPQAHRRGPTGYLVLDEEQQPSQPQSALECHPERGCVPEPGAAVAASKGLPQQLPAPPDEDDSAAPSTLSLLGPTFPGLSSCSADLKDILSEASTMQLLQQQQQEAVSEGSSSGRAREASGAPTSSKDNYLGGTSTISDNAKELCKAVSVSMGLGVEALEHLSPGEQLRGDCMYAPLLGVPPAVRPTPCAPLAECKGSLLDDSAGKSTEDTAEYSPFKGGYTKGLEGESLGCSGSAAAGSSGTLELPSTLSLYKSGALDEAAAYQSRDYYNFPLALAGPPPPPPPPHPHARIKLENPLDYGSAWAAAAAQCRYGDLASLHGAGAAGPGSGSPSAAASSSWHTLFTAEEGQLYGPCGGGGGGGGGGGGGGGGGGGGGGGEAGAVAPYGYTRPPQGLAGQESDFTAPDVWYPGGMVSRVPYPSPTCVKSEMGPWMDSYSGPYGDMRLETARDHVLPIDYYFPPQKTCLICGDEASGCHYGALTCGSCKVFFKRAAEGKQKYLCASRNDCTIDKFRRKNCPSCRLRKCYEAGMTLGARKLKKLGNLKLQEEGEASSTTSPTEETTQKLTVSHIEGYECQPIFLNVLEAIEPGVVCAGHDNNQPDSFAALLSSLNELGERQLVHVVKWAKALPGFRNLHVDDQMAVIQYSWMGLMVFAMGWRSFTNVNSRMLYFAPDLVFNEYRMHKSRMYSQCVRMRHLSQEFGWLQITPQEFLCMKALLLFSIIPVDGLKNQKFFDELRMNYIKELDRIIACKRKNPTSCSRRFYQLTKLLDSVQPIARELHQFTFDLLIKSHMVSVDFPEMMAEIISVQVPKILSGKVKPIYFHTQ
# ASSAY_TEXT: qHTS assay to identify small molecule antagonists of the androgen receptor (AR) signaling pathway (AID 743035)
# EXPERIMENTAL_SETUP: HEK293 AR-UAS-bla, R1881-stimulated, beta-lactamase FRET, 16 h; series mostly up to 58.5 µM
Inconclusive results are not listed. Activity calls are given as the source filed them. The call rests on the fitted dose curve; in most records, active means well fitted inhibition curve with a large enough effect in the signal ratio in the repeat runs (not every such curve was filed as active); inconclusive means weak or mixed curves, or effect the other way; inactive means no such curve, though single readings can be large or run the other way; the % refers to the signal ratio.
Your response should consist of one outcome taken from T = active, F = inactive

Known results for compounds:
| COMPOUND | TARGET_ENTITY | ASSIGNED_LABEL |
| --- | --- | --- |
| CC(C)CCCC(C)CCO (configuration not stated) | Androgen receptor (Homo sapiens) (UniProt P10275) | F |
| Cc1cc(NC(=O)C(=O)O)cc(C)c1Oc1ccc(O)c2c1CCC2 | Androgen receptor (Homo sapiens) (UniProt P10275) | F |
| COCCOCCOCCOCCOC | Androgen receptor (Homo sapiens) (UniProt P10275) | F |
| CCN(CC)CCOC(=O)C1(c2ccccc2)CCCC1 | Androgen receptor (Homo sapiens) (UniProt P10275) | F |

Ask | Tell me the recorded outcome of this test for O=C(C(=O)c1ccc(Br)cc1)c1ccc(Br)cc1 .
Reply | F

Ask | Hi, do you know how CC[C@]12CCCN3CCc4c(n(c5ccccc45)C(=O)C1)[C@@H]32 came out in this test?
Reply | T

Ask | // return assay outcome for C=C(C)C(=O)OC(C)C
Reply | F

----------
# ASSAY_TEXT: qHTS RealTime-Glo MT Cell Viability Assay in HEK293 cells - 32 hour (AID 1224868); note: nearly all actives have a fitted effect of over 50% in size
# EXPERIMENTAL_SETUP: RealTime-Glo luminescence; series mostly up to 76.8 µM
Inconclusive results are not listed. The source made the active and inactive calls. Calls follow the shape of the dose curve; as a rule, active = well fitted cell-killing curve with a large enough effect in the repeat runs; inconclusive = weak or mixed curves, or effect the other way; inactive = flat fitted curve, though single readings scatter.
The reply should be one of these categories: active, inactive

Past entries and their recorded results:
| MOLECULE | ASSIGNED_LABEL |
| --- | --- |
| O=S1(=O)N=C(O)c2ccccc21 | inactive |
| Cc1ccc(O)c([C@H](CCN(C(C)C)C(C)C)c2ccccc2)c1 | inactive |
| Nc1nc(N)c(-c2ccccc2)s1 | inactive |
| CC(C)c1ccc2c(C(C)C)cc(C(C)C)c(S(=O)(=O)O)c2c1 | inactive |
| Cc1cccc(C(C)(C)C)c1O | inactive |

Ask | Dear all, I need the recorded test outcome for O=C(O)Cn1c(C(=O)Nc2nc(-c3ccccc3Cl)cs2)cc2ccccc21 , thank you.
Reply | inactive

Ask | Called result for Oc1ccc2c(c1)OCO2
Reply | inactive

Ask | Tell me the assay call for C=CC[N+]1([C@H]2C[C@H]3[C@@H]4CC[C@H]5C[C@H](OC(C)=O)[C@@H](N6CCCCC6)C[C@]5(C)[C@H]4CC[C@]3(C)[C@H]2OC(=O)CC)CCCCC1 please.
Reply | inactive

Ask | Outcome logged for CC(C)(C)c1ccc(S)cc1 in this assay:
Reply | inactive

Ask | Record request — test call for c1ccc(OCc2ccc(CCCN3CCOCC3)cc2)cc1
Reply | active

----------
# ASSAY_TEXT: qHTS assay to identify small molecule agonists of the sonic hedgehog signaling (Shh) pathway - cell viability counter screen (AID 1259366); note: nearly all actives have a fitted effect of over 50% in size
# EXPERIMENTAL_SETUP: NIH/3T3 Gli1-Luc viability, CellTiter-Fluor, 24 h; series mostly up to 92.4 µM
Records with an inconclusive call do not appear. Calls of active or inactive are those of the source. Calls come from the whole dose curve; as a rule, active = well fitted cell-killing curve with a large enough effect in the repeat runs; inconclusive = weak or mixed curves, or effect the other way; inactive = flat fitted curve, though single readings scatter.
Mark one answer only. Choices: y for active, n for inactive

Ask | # fetch the recorded call for CC(C)CCCC(C)CCO (stereo unspecified) here
Reply | n

Ask | Test call, this compound: c1ccc(OCc2ccc(CCCN3CCOCC3)cc2)cc1
Reply | n

Ask | Give the logged outcome of this assay for the following compound: CCC(=O)OC(C)(C)C1CC=C(C)CC1 (stereo unspecified)
Reply | n

Ask | For CCOC(=O)CC(C)C , which call appears in the assay record?
Reply | n

Ask | Any idea what this test logged for CC(C)(C)c1cc(CCC(=O)OCC(COC(=O)CCc2cc(C(C)(C)C)c(O)c(C(C)(C)C)c2)(COC(=O)CCc2cc(C(C)(C)C)c(O)c(C(C)(C)C)c2)COC(=O)CCc2cc(C(C)(C)C)c(O)c(C(C)(C)C)c2)cc(C(C)(C)C)c1O ?
Reply | n

Ask | GET /call?item= C=C(C)C(=O)OCCN(C)C returns the recorded outcome of this test.
Reply | n

Ask | Record request — test call for CCCCc1cc2ccccc2c(OCCN(C)C)n1
Reply | n

Ask | Hi, do you know how CCN(CC)C(C)CN1c2ccccc2Sc2ccccc21 (stereo unspecified) came out in this test?
Reply | n

Ask | Test call, this compound: CCCCOC(O)CC (stereo unspecified)
Reply | n

Ask | Assay outcome for CCCCCCCCN(C)C : what was it?
Reply | n
